The entries below come with measured melting point values attached.

compound | meas.value
CCCCCCCCc1ccc2cc3c(cc2c1)sc1cc2cc(CCCCCCCC)ccc2cc13 [Example 8] | 193.7 to 194.8 °C
CCCCCCCCCCc1ccc2cc3c(cc2c1)oc1cc2cc(CCCCCCCCCC)ccc2cc13 [Example 3, 3,9-didecyldinaphtho[2,3-b:2′,3′-d]furan] | 216 to 217 °C
CCCCCCCCCCc1ccc2cc3oc4cc5ccc(CCCCCCCCCC)cc5cc4c3cc2c1 [Example 1] | 175 to 176 °C
c1ccc2cc3c(cc2c1)sc1cc2ccccc2cc13 [Comparative Example 1, dinaphtho[2,3-b:2′,3′-d]thiophene] | 282 to 283 °C
CCCCCCc1ccc2cc3c(cc2c1)oc1cc2cc(CCCCCC)ccc2cc13 [Example 5, 3,9-dihexyldinaphtho[2,3-b:2′,3′-d]furan] | 198.7 to 199.1 °C

Requested field: melting point. Item: CCCCCCCCCCc1ccc2cc3sc4cc5ccc(CCCCCCCCCC)cc5cc4c3cc2c1 [Example 2]
122 to 123 °C

Would you kindly share the measured melting point for CCCCCCCCCCc1ccc2cc3c(cc2c1)sc1cc2cc(CCCCCCCCCC)ccc2cc13 [Example 6] ?
182 to 183 °C

Give the measured melting point of CCCCCCc1ccc2cc3c(cc2c1)sc1cc2cc(CCCCCC)ccc2cc13 [Example 7] .
202 to 202.4 °C
